// EC50, CellTiter-Glo lookup, one value per entry
Test system: HCC1599
condition parameters: 72 h
Hey, just the number and the unit after it is fine.

Worked examples, 5 molecules total:
[
  {
    "molecule": "C=CC(=O)Nc1cc2c(Nc3ccc(F)c(Cl)c3)ncnc2cc1OCCCN1CCOCC1 [Canertinib]",
    "EC50, CellTiter-Glo": "586 nM"
  },
  {
    "molecule": "C=CCc1cccc(/C=N/NC(=O)CN2CCN(Cc3ccccc3)CC2)c1O [PAC-1]",
    "EC50, CellTiter-Glo": "7690 nM"
  },
  {
    "molecule": "Cc1cnc(NC(=O)Nc2cc(Br)c(C)cc2OC[C@@H]2CNCCO2)cn1 [Rabusertib]",
    "EC50, CellTiter-Glo": "691 nM"
  },
  {
    "molecule": "Nc1ccccc1NC(=O)c1ccc(CNC(=O)OCc2cccnc2)cc1 [Entinostat]",
    "EC50, CellTiter-Glo": "4840 nM"
  },
  {
    "molecule": "CCCCC(=O)OCC(=O)[C@]1(O)Cc2c(O)c3c(c(O)c2[C@@H](O[C@H]2C[C@H](NC(=O)C(F)(F)F)[C@H](O)[C@H](C)O2)C1)C(=O)c1c(OC)cccc1C3=O [Valrubicin]",
    "EC50, CellTiter-Glo": "3220 nM"
  }
]

### Prompt Item O=C(Cc1ccc(-c2ccc(OCCN3CCOCC3)cc2)cn1)NCc1ccccc1 [KX2-391] has what recorded EC50, CellTiter-Glo?
### Response 61.9 nM

---

// drug sensitivity score lookup, one value per entry
Tested on: MDA-MB-231
assay remarks: drug sensitivity score (DSS), CellTiter-Blue viability (DSS (AUC-based score)); higher = stronger viability inhibition; extreme values may be limits of the assay
condition parameters: incubation time: 72 h
Respond using a number only.

[
  {
    "test smiles": "CC(=O)Nc1cccc(-n2c(=O)n(C3CC3)c(=O)c3c(Nc4ccc(I)cc4F)n(C)c(=O)c(C)c32)c1",
    "drug sensitivity score": 21.7
  },
  {
    "test smiles": "COc1cc2nccc(Oc3ccc(NC(=O)Nc4cc(C)on4)c(Cl)c3)c2cc1OC",
    "drug sensitivity score": 3.77
  }
]

### Prompt # get_value(readout= drug sensitivity score, system= MDA-MB-231) for "CC1=C(/C=C/C(C)=C/C=C/C(C)=C/C(=O)O)C(C)(C)CCC1"
### Response 0

### Prompt # get_value(readout= drug sensitivity score, system= MDA-MB-231) for "N#Cc1ccc(C(c2ccc(C#N)cc2)n2cncn2)cc1"
### Response 0

### Prompt # get_value(readout= drug sensitivity score, system= MDA-MB-231) for "Nc1nc(F)nc2c1ncn2[C@@H]1O[C@H](CO)[C@@H](O)[C@@H]1O"
### Response 0

### Prompt # get_value(readout= drug sensitivity score, system= MDA-MB-231) for "Nc1ccccc1NC(=O)c1ccc(CNC(=O)OCc2cccnc2)cc1"
### Response 4.99

### Prompt # get_value(readout= drug sensitivity score, system= MDA-MB-231) for "CCCS(=O)(=O)Nc1ccc(F)c(C(=O)c2c[nH]c3ncc(-c4ccc(Cl)cc4)cc23)c1F"
### Response 0

### Prompt # get_value(readout= drug sensitivity score, system= MDA-MB-231) for "O=C(O)C(=O)O.[NH-][C@@H]1CCCC[C@H]1[NH-].[Pt+2]"
### Response 0
